Experiment: Thermal stability of neat compound (solid state, HPLC)
Type: physicochemical
Details: solid state, 80 °C, 6 Wks, in the dark; read-out: % Inital
Protocol: The solid state stability of neat compound was assessed by storage of the drug in glass screw-cap vials in the dark. Samples were assayed by HPLC and the parent compound was quantitatively analyzed. The isocratic method that was employed is outlined below: Column: Beckman Ultrasphere ODS (250×4.6 mm, 5 μ) Mobile Phase: 0.1% TEA, pH 4.0 with H3 PO4 :Acetonitrile (65:35) Detection Wavelength: 228 nm Column Temperature: Ambient […] The results shown below for Forms I and II were calculated as weight percent.
quantity_name: remaining at 1008 h (%)
Answer with a number only, understood to be in %.

Prompt line: Could you tell me which remaining at 1008 h is on file for CC(C)(N)C(=O)N[C@H](COCc1ccccc1)C(=O)N1CCC2(CC1)CN(S(C)(=O)=O)c1ccccc12 [Form I] ?
Response line: 101

---

Experiment: Thermal stability of neat compound (solid state, HPLC)
Format: physicochemical
Conditions: solid state, 40 °C, 4 Wks, in the dark; read-out: % Initial
Method: The solid state stability of neat compound was assessed by storage of the drug in glass screw-cap vials in the dark. Samples were assayed by HPLC and the parent compound was quantitatively analyzed. The isocratic method that was employed is outlined below: Column: Beckman Ultrasphere ODS (250×4.6 mm, 5 μ) Mobile Phase: 0.1% TEA, pH 4.0 with H3 PO4 :Acetonitrile (65:35) Detection Wavelength: 228 nm Column Temperature: Ambient […] The results shown below for Forms I and II were calculated as weight percent.
quantity_name: remaining at 672 h (%)
// note: answer is a bare numeric in %

Prompt line: Which remaining at 672 h value belongs to CC(C)(N)C(=O)N[C@H](COCc1ccccc1)C(=O)N1CCC2(CC1)CN(S(C)(=O)=O)c1ccccc12 [Form II] ?
Response line: 99.5

---

Assay: Solubility of Forms I and II in water, buffer, ethanol/water and isopropanol
Type: physicochemical
Conditions: ethanol/water 25/75, organic solvent or mixture; % Ethanol/H2O 25/75; read-out: Solubility in ethanol/water
quantity_name: solubility

Prompt line: For the compound CC(C)(N)C(=O)N[C@H](COCc1ccccc1)C(=O)N1CCC2(CC1)CN(S(C)(=O)=O)c1ccccc12 [Form I] , what solubility is on record?
Response line: > 100 mg/mL

---

Experiment: Thermal stability of neat compound (solid state, HPLC)
Assay type: physicochemical
Conditions: solid state, 80 °C, 1 Wk, in the dark; read-out: % Initial
quantity_name: remaining at 168 h (%)
The reply should be a number in %, with the unit left off.

Prompt line: Please give the measured remaining at 168 h for this compound: CC(C)(N)C(=O)N[C@H](COCc1ccccc1)C(=O)N1CCC2(CC1)CN(S(C)(=O)=O)c1ccccc12 [Form II]
Response line: 99.2

---

Assay: Thermal stability of neat compound (solid state, HPLC)
Type: physicochemical
Conditions: solid state, 40 °C, 24 Wks, in the dark; read-out: % Initial
quantity_name: remaining at 4032 h (%)
Give the value, in units of %, as a plain number.

Prompt line: Give the measured remaining at 4032 h of CC(C)(N)C(=O)N[C@H](COCc1ccccc1)C(=O)N1CCC2(CC1)CN(S(C)(=O)=O)c1ccccc12 [Form II] .
Response line: 100

---

Assay: Thermal stability of neat compound (solid state, HPLC)
Format: physicochemical
Conditions: solid state, 80 °C, 8 Wks, in the dark; read-out: % Initial
quantity_name: remaining at 1344 h (%)
Expressed in %, but write only the number.

Prompt line: // remaining at 1344 h lookup, key: CC(C)(N)C(=O)N[C@H](COCc1ccccc1)C(=O)N1CCC2(CC1)CN(S(C)(=O)=O)c1ccccc12 [Form II]
Response line: 99.8

---

Assay: Solubility of Forms I and II in water, buffer, ethanol/water and isopropanol
Format: physicochemical
Details: organic solvent or mixture; 100% ethanol; read-out: Solubility in ethanol
quantity_name: solubility

Prompt line: Suppose we examine the molecule CC(C)(N)C(=O)N[C@H](COCc1ccccc1)C(=O)N1CCC2(CC1)CN(S(C)(=O)=O)c1ccccc12 [Form I] ; what solubility value has been reported?
Response line: > 90 mg/mL

---

Experiment: Thermal stability of neat compound (solid state, HPLC)
Assay type: physicochemical
Settings: solid state, 60 °C, 8 Wks, in the dark; read-out: % Initial
quantity_name: remaining at 1344 h (%)
// note: answer is a bare numeric in %

Prompt line: Quick check: remaining at 1344 h of CC(C)(N)C(=O)N[C@H](COCc1ccccc1)C(=O)N1CCC2(CC1)CN(S(C)(=O)=O)c1ccccc12 [Form II] ?
Response line: 100

---

Assay: Hygroscopicity: storage of solid forms in constant relative humidity chambers
Assay type: physicochemical
Conditions: 76% RH, room temperature, 48 hrs; footnote a = sample becomes a gummy semisolid
Listed here: items and their measured % Gain/Loss.

- molecule: "CC(C)(N)C(=O)N[C@H](COCc1ccccc1)C(=O)N1CCC2(CC1)CN(S(C)(=O)=O)c1ccccc12 [Form III]"
  % Gain/Loss: "+3.76%"
- molecule: "CC(C)(N)C(=O)N[C@H](COCc1ccccc1)C(=O)N1CCC2(CC1)CN(S(C)(=O)=O)c1ccccc12 [Form IV]"
  % Gain/Loss: "+1.5%"
- molecule: "CC(C)(N)C(=O)N[C@H](COCc1ccccc1)C(=O)N1CCC2(CC1)CN(S(C)(=O)=O)c1ccccc12 [Form I]"
  % Gain/Loss: "+0.12%"

Next:
Prompt line: Which % Gain/Loss value belongs to CC(C)(N)C(=O)N[C@H](COCc1ccccc1)C(=O)N1CCC2(CC1)CN(S(C)(=O)=O)c1ccccc12 [Form II] ?
Response line: > 10.0%

---

Assay: Thermal stability of neat compound (solid state, HPLC)
Format: physicochemical
Details: solid state, 60 °C, 24 Wks, in the dark; read-out: % Initial
quantity_name: remaining at 4032 h (%)
# output: bare number, implied unit %

Prompt line: Given the compound CC(C)(N)C(=O)N[C@H](COCc1ccccc1)C(=O)N1CCC2(CC1)CN(S(C)(=O)=O)c1ccccc12 [Form II] , what is its reported remaining at 4032 h?
Response line: 101

---

Assay: Solubility of Forms I and II in water, buffer, ethanol/water and isopropanol
Type: physicochemical
Settings: buffer ph 4-9; RT, pH 4-9; read-out: aqueous solubility in buffered solutions
quantity_name: solubility

Prompt line: GET /values?readout=solubility&item= CC(C)(N)C(=O)N[C@H](COCc1ccccc1)C(=O)N1CCC2(CC1)CN(S(C)(=O)=O)c1ccccc12 [Form II]
Response line: > 100 mg/mL
